The origin of these recorded values is PubChem BioAssay (NCI).

tested on: SNB-75 CNS; test: NCI tumour cell line growth inhibition, 48 h
ENDPOINT LABEL: TGI

# COMPOUND, TARGET OR SYSTEM, RESULT
records = [
    ("C=C1C(=O)O[C@H]2[C@H]1CC/C(COC(=O)/C=C/c1cccnc1)=C\\CC[C@@]1(C)O[C@@H]21", "SNB-75 CNS", "24.1 µM"),
    ("Clc1ccc(Nc2ccnc(NCCNc3ccnc4cc(Cl)ccc34)n2)cc1", "SNB-75 CNS", "2.47 µM"),
    ("COc1ccccc1-c1n[nH]c(-c2ccccc2O)n1", "SNB-75 CNS", "> 100 µM"),
    ("COc1cccc(-c2nc(-c3ccc(NS(=O)(=O)c4ccccc4)cc3)[nH]c2-c2ccnc(Br)c2)c1", "SNB-75 CNS", "> 100 µM"),
    ("NCCCn1c2c(c3ccccc3c1=O)C(=O)c1cc3c(cc1-2)OCO3", "SNB-75 CNS", "1.72 µM"),
    ("O=C(O)C1CCCN1Cc1c[nH]c2ccccc12 (configuration not stated)", "SNB-75 CNS", "> 100 µM"),
    ("Brc1nc2c3ccccc3ncn2c1Br", "SNB-75 CNS", "44.2 µM"),
    ("CCOc1cc(NC(C)=O)ccc1C(=O)NN1C(=O)C(Cl)C1c1ccc(O)c(OC)c1 (configuration not stated)", "SNB-75 CNS", "24.1 µM"),
    ("Cc1c2[nH]c3ccc(Br)cc3c2c(C)c2[nH]ccc(=O)c12", "SNB-75 CNS", "> 100 µM"),
    ("Cc1cccc2c1CC(C1OC(=O)c3c(C)cccc31)C2=O (configuration not stated)", "SNB-75 CNS", "> 100 µM"),
    ("COc1cccc(N2C(=O)CSC2c2c[nH]c3ccccc23)c1 (configuration not stated)", "SNB-75 CNS", "> 100 µM"),
    ("COC1C(=[N+]=[N-])C(=O)NC(=O)N1C1OC(COC(c2ccccc2)(c2ccccc2)c2ccccc2)C(O)C1O (configuration not stated)", "SNB-75 CNS", "29.5 µM"),
    ("COc1ccc(/C=C/C(=N/NC(=O)N/N=C(/C=C/c2ccc(OC)cc2)C(C)C)C(C)C)cc1", "SNB-75 CNS", "> 100 µM"),
    ("O=C1CC2(CCCc3sccc32)C(=O)N1 (configuration not stated)", "SNB-75 CNS", "> 100 µM"),
    ("O=S(=O)(O)c1cc(S(=O)(=O)O)c2c(N=Nc3ccccc3)c(O)ccc2c1", "SNB-75 CNS", "> 100 µM"),
    ("N.N.NCCCCN.O=C([O-])CC(=O)[O-].O=C([O-])CC(=O)[O-].[Pt+4].[Pt+4]", "SNB-75 CNS", "> 100 µM"),
    ("OC12c3ccccc3C1CCCCCCCCCC21OCCCO1 (configuration not stated)", "SNB-75 CNS", "> 100 µM"),
    ("COC(=O)CC(SCCO)SCCO", "SNB-75 CNS", "> 100 µM"),
    ("COC(=O)C1Cc2c(n(C)c3ccccc23)C(c2ccccc2)N1 (configuration not stated)", "SNB-75 CNS", "> 100 µM"),
    ("Clc1ccccc1-c1nn2c(CCCCCCCCc3nnc4sc(-c5ccccc5Cl)nn34)nnc2s1", "SNB-75 CNS", "> 100 µM"),
    ("CCCCCCC(O)C/C=C/CCCCCC/C(C(=O)OC)=C(/O)C(=O)OCC (configuration not stated)", "SNB-75 CNS", "> 100 µM"),
    ("CC(C)(C)c1cc(C(C)(C)C)c(P=C(Cl)Cl)c(C(C)(C)C)c1 (configuration not stated)", "SNB-75 CNS", "> 100 µM"),
]
